Provenance of the data: PubChem BioAssay AID488834

measured_target: Lysosomal alpha-glucosidase (Homo sapiens)
experiment: qHTS Assay for Inhibitors and Activators of N370S glucocerebrosidase as a Potential Chaperone Treatment of Gaucher Disease: Alpha-Glucosidase Counterscreen for Probe SAR
details: purified human alpha-glucosidase, 4-MU fluorogenic substrate
From the text: NIH Chemical Genomics Center [NCGC] NIH Molecular Libraries Probe Production Centers Network [MLPCN] […] NCGC Assay Protocol Summary: This is a fluorogenic enzyme assay with 4-methylumbelliferyl-alpha-D-[…] as the substrate and human alpha-glucosidase as the enzyme preparation. […] 4-methyllumbelliferone, can be excited at 365 nm and emits at 440 nm which can be detected by a standard fluorescence plate reader. […]
Readings of max response for the listed compounds
Give the number; % is assumed, so skip it.

Illustrative cases are given below, each with its answer.
| compound | value_type | readout_value |
| --- | --- | --- |
| O=C(Nc1ccccc1Sc1ccccc1)c1cnn2c1NC(=C1CC1)C=C2C(F)F | max response | -18.1 |
| C=C1C=C(C(F)F)n2ncc(C(=O)Nc3ccc(C(C)CC)cc3)c2N1 (centres undefined) | max response | -2.76 |
| O=C(NC1CCCCC1)c1cnn2c1NC(=C1CC1)C=C2C(F)F | max response | -3.85 |

Recorded max response of O=C(Nc1ccccc1Sc1ccccc1)c1cnn2c1NC(=C1CC1)C=C2C(F)(F)F , please.
-11.4
